# Tested System: glutathione S-transferase [GST: P08515]
# Sequence (P08515 whole entry): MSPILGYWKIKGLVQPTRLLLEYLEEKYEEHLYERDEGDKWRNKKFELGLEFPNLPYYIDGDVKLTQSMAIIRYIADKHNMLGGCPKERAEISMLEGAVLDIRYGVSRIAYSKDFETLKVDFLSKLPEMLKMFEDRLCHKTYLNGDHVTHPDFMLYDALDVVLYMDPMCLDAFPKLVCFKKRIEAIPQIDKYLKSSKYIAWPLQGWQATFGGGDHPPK
# Method Notes: indirect ELISA, GST coated
Measurement Label: ELISA affinity (LogIC50 (oD450nm))

>  <Binder>
G43 (VHH) VHH: EVQLVESGGGLVQAGGSLRLSCATSGRTSSTYAMGWFRQRPGKEREFVATIHWGVGSTIYADSVKGRFTLSRDNAQNTVYLQMNSLKPEDTAVYYCAASTYRIGSYDVSTSQGYNYWGQGTQVTVSS

>  <Endpoint Result>
4.32

$$$$
>  <Binder>
G30 (VHH) VHH: QVQLVESGGGLVQAGGSLRLSCAASGRTINNYDMGWFRQAPGKEREFVAAITWSGRDTNYADSVKGRFTVSRDDAKNTVYLQMNTLSPEDTAVYYCASARIQFYRLVAATRTDYSYWGQGTQVTVSS

>  <Endpoint Result>
4.86

$$$$
>  <Binder>
G93 (VHH) VHH: QVQLVESGGGLVQPGGSLRLSCAASGSGFSSSIIGWHRQAPGKQRELVAAIGGPGSTNYADSVKGRFTISRDNAKNTAYLQMNNLKPEDSAVYYCEATTRSGREYWGQGTQVTVSS

>  <Endpoint Result>
2.16

$$$$
>  <Binder>
G50 (VHH) VHH: EVQLVESGGGLVQAGGSLRLSCAASGRTFSRYHMGWFRQAPGKERDVVAAISWSGDSTYYADSVKGRFTISKDNAKNTVYLQMDSLKPEDTAVYYCATLSGWDGDTIFPAGSWGQGTQVTVSS

>  <Endpoint Result>
1.09

$$$$
